The entries below are paired with their reported viability, T/C.
system: 379773-124-R-J2-PDC complex spheroids, viability % test/control; assay: Anticancer human tumor 379773-124-R-J2-PDC patient-derived endometrial carcinoma cell line growth inhibition [CLK]; conditions: second compound 0.0316 µM; first compound 1 µM; stronger effect = lower value
resultType: viability, T/C (%)

INSERT INTO measurements (compound, resulttype, val) VALUES
  ('Nc1ccccc1NC(=O)c1ccc(CNC(=O)OCc2cccnc2)cc1 + CNC(=O)c1ccc(Nc2nc(OC3CCCC3)c3c(-c4ccc5nc(C)oc5c4)c[nH]c3n2)c(OC)c1', 'viability, T/C', 70.6),
  ('CC(CO)NC(=O)c1cc(-c2ccc(Cl)cc2)nn(-c2cnn(C)c2)c1=O (centres undefined) + CNC(=O)c1ccc(Nc2nc(OC3CCCC3)c3c(-c4ccc5nc(C)oc5c4)c[nH]c3n2)c(OC)c1', 'viability, T/C', 74.2),
  ('COc1cccc2c1C(=O)c1c(O)c3c(c(O)c1C2=O)CC(O)(C(=O)CO)CC3OC1CC(N)C(O)C(C)O1 (centres undefined) + CNC(=O)c1ccc(Nc2nc(OC3CCCC3)c3c(-c4ccc5nc(C)oc5c4)c[nH]c3n2)c(OC)c1', 'viability, T/C', 3.7),
  ('CC(=O)O[C@H]1C(=O)[C@@]2(C)[C@H]([C@H](OC(=O)c3ccccc3)[C@]3(O)C[C@H](OC(=O)[C@H](O)[C@@H](NC(=O)c4ccccc4)c4ccccc4)C(C)=C1C3(C)C)[C@]1(OC(C)=O)CO[C@@H]1C[C@@H]2O + CN1CCN(c2cc(C(=O)Nc3cc4cc(-c5cnn(C)c5)ccc4cn3)ccn2)CC1', 'viability, T/C', 6.76),
  ('C=C(F)C(=O)N1CCN(c2nc(OCC3CCCN3C)nc3c2CCN(c2cccc4cccc(Cl)c24)C3)CC1CC#N (centres undefined) + CN1CCN(c2cc(C(=O)Nc3cc4cc(-c5cnn(C)c5)ccc4cn3)ccn2)CC1', 'viability, T/C', 88.7),
  ('COc1c(OCCCN2CCOCC2)ccc2c3n(c(=NC(=O)c4cnc(N)nc4)nc12)CCN3 + CN1CCN(c2cc(C(=O)Nc3cc4cc(-c5cnn(C)c5)ccc4cn3)ccn2)CC1', 'viability, T/C', 2.85),
  ('O=c1[nH]cc(F)c(=O)[nH]1 + CNC(=O)c1ccc(Nc2nc(OC3CCCC3)c3c(-c4ccc5nc(C)oc5c4)c[nH]c3n2)c(OC)c1', 'viability, T/C', 70.5),
  ('CC(Nc1ccc2c(c1)OCCn1cc(N3C(=O)OCC3C(F)F)nc1-2)C(N)=O (centres undefined) + CNC(=O)c1ccc(Nc2nc(OC3CCCC3)c3c(-c4ccc5nc(C)oc5c4)c[nH]c3n2)c(OC)c1', 'viability, T/C', 73.9),
  ('CC(=O)O[C@H]1C(=O)[C@@]2(C)[C@H]([C@H](OC(=O)c3ccccc3)[C@]3(O)C[C@H](OC(=O)[C@H](O)[C@@H](NC(=O)c4ccccc4)c4ccccc4)C(C)=C1C3(C)C)[C@]1(OC(C)=O)CO[C@@H]1C[C@@H]2O + CNC(=O)c1ccc(Nc2nc(OC3CCCC3)c3c(-c4ccc5nc(C)oc5c4)c[nH]c3n2)c(OC)c1', 'viability, T/C', 9.72);

###

system: 379773-124-R-J2-PDC complex spheroids, viability % test/control; assay: Anticancer human tumor 379773-124-R-J2-PDC cell line growth inhibition [CLK]; conditions: second compound 10 µM; first compound 0.01 µM; active means viability on the fitted dose curve at most 10% of control; inactive means the rest;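 further: compound exposure lasted seven days before the viability readout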
Possible outcomes: active, inactive

INSERT INTO assay_data (compound, label) VALUES
  ('COc1c(OCCCN2CCOCC2)ccc2c3n(c(=NC(=O)c4cnc(N)nc4)nc12)CCN3 + CNC(=O)c1ccc(Nc2nc(OC3CCCC3)c3c(-c4ccc5nc(C)oc5c4)c[nH]c3n2)c(OC)c1', 'inactive'),
  ('COc1c(OCCCN2CCOCC2)ccc2c3n(c(=NC(=O)c4cnc(N)nc4)nc12)CCN3 + CN1CCN(c2cc(C(=O)Nc3cc4cc(-c5cnn(C)c5)ccc4cn3)ccn2)CC1', 'active'),
  ('Cn1ncnc1[C@H]1c2n[nH]c(=O)c3cc(F)cc(c23)N[C@@H]1c1ccc(F)cc1 + CNC(=O)c1ccc(Nc2nc(OC3CCCC3)c3c(-c4ccc5nc(C)oc5c4)c[nH]c3n2)c(OC)c1', 'inactive');

###

test system: 379773-124-R-J2-PDC complex spheroids, viability % test/control; test: Anticancer human tumor 379773-124-R-J2-PDC cell line growth inhibition [CLK]; conditions: second compound 0.0316 µM; first compound 1 µM; active means viability on the fitted dose curve at most 10% of control; inactive means the rest;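 further: compound exposure lasted seven days before the viability readout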
Labels: active, inactive

INSERT INTO assay_data (compound, studysystem, label) VALUES
  ('COC1C=CCC(C)C(C)S(=O)(=O)NC(=O)c2ccc3c(c2)N(CC2CCC21)CC1(CCCc2cc(Cl)ccc21)CO3 (stereo unspecified) + CN1CCN(c2cc(C(=O)Nc3cc4cc(-c5cnn(C)c5)ccc4cn3)ccn2)CC1', '379773-124-R-J2-PDC complex spheroids, viability % test/control', 'inactive'),
  ('CC1COCCN1c1cc(C2(S(C)(=N)=O)CC2)nc(-c2ccnc3[nH]ccc23)n1 (stereo unspecified) + CNC(=O)c1ccc(Nc2nc(OC3CCCC3)c3c(-c4ccc5nc(C)oc5c4)c[nH]c3n2)c(OC)c1', '379773-124-R-J2-PDC complex spheroids, viability % test/control', 'inactive'),
  ('CC1COCCN1c1cc(C2(S(C)(=N)=O)CC2)nc(-c2ccnc3[nH]ccc23)n1 (stereo unspecified) + CN1CCN(c2cc(C(=O)Nc3cc4cc(-c5cnn(C)c5)ccc4cn3)ccn2)CC1', '379773-124-R-J2-PDC complex spheroids, viability % test/control', 'inactive'),
  ('Nc1ccn(C2OC(CO)C(O)C2(F)F)c(=O)n1 (stereo unspecified) + CN1CCN(c2cc(C(=O)Nc3cc4cc(-c5cnn(C)c5)ccc4cn3)ccn2)CC1', '379773-124-R-J2-PDC complex spheroids, viability % test/control', 'active'),
  ('O=C(c1cc(Cc2n[nH]c(=O)c3ccccc23)ccc1F)N1CCN(C(=O)C2CC2)CC1 + CN1CCN(c2cc(C(=O)Nc3cc4cc(-c5cnn(C)c5)ccc4cn3)ccn2)CC1', '379773-124-R-J2-PDC complex spheroids, viability % test/control', 'inactive'),
  ('CCN1CCN(Cc2ccc(Nc3ncc(F)c(-c4cc(F)c5nc(C)n(C(C)C)c5c4)n3)nc2)CC1 + CN1CCN(c2cc(C(=O)Nc3cc4cc(-c5cnn(C)c5)ccc4cn3)ccn2)CC1', '379773-124-R-J2-PDC complex spheroids, viability % test/control', 'inactive');

###

System: 379773-124-R-J2-PDC complex spheroids, viability % test/control
Test: Anticancer human tumor 379773-124-R-J2-PDC cell line growth inhibition [CLK];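 further: compound exposure lasted seven days before the viability readout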
Settings: curve of first compound; second compound 1 µM
Text: A high-throughput screen of multi-cell type tumor spheroids was designed to identify active combinations of […] and targeted small molecules. Complex spheroids include a stromal component modeled by human endothelial cells (HUVEC) and fibroblasts modeled by human mesenchymal stem cells (MSCs). […] Compounds. […] If the clinical Cmax for an agent had not been determined, the highest concentration tested was 10 microM. […]
pIC50: −log10 of the molar value.
resultType: pIC50

INSERT INTO results (molecule, resulttype, val) VALUES
  ('Nc1ccccc1NC(=O)c1ccc(CNC(=O)OCc2cccnc2)cc1 + CNC(=O)c1ccc(Nc2nc(OC3CCCC3)c3c(-c4ccc5nc(C)oc5c4)c[nH]c3n2)c(OC)c1', 'pIC50', '> 7.50'),
  ('CCc1c2c(nc3ccc(O)cc13)-c1cc3c(c(=O)n1C2)COC(=O)[C@]3(O)CC + CN1CCN(c2cc(C(=O)Nc3cc4cc(-c5cnn(C)c5)ccc4cn3)ccn2)CC1', 'pIC50', '> 8.50'),
  ('CC(Nc1ccc2c(c1)OCCn1cc(N3C(=O)OCC3C(F)F)nc1-2)C(N)=O (stereo not given) + CN1CCN(c2cc(C(=O)Nc3cc4cc(-c5cnn(C)c5)ccc4cn3)ccn2)CC1', 'pIC50', '> 7.50'),
  ('COc1cccc2c1C(=O)c1c(O)c3c(c(O)c1C2=O)CC(O)(C(=O)CO)CC3OC1CC(N)C(O)C(C)O1 (stereo not given) + CN1CCN(c2cc(C(=O)Nc3cc4cc(-c5cnn(C)c5)ccc4cn3)ccn2)CC1', 'pIC50', '> 7.50'),
  ('CC(=O)O[C@H]1C(=O)[C@@]2(C)[C@H]([C@H](OC(=O)c3ccccc3)[C@]3(O)C[C@H](OC(=O)[C@H](O)[C@@H](NC(=O)c4ccccc4)c4ccccc4)C(C)=C1C3(C)C)[C@]1(OC(C)=O)CO[C@@H]1C[C@@H]2O + CNC(=O)c1ccc(Nc2nc(OC3CCCC3)c3c(-c4ccc5nc(C)oc5c4)c[nH]c3n2)c(OC)c1', 'pIC50', '> 7.50'),
  ('C=CC(=O)N1CCN(c2nc(=O)n(-c3c(C)ccnc3C(C)C)c3nc(-c4c(O)cccc4F)c(F)cc23)C(C)C1 (stereo not given) + CN1CCN(c2cc(C(=O)Nc3cc4cc(-c5cnn(C)c5)ccc4cn3)ccn2)CC1', 'pIC50', '> 7.50'),
  ('CC1COCCN1c1cc(C2(S(C)(=N)=O)CC2)nc(-c2ccnc3[nH]ccc23)n1 (stereo not given) + CN1CCN(c2cc(C(=O)Nc3cc4cc(-c5cnn(C)c5)ccc4cn3)ccn2)CC1', 'pIC50', '> 7.50'),
  ('CCCS(=O)(=O)Nc1ccc(F)c(C(=O)c2c[nH]c3ncc(-c4ccc(Cl)cc4)cc23)c1F + CN1CCN(c2cc(C(=O)Nc3cc4cc(-c5cnn(C)c5)ccc4cn3)ccn2)CC1', 'pIC50', '> 7.50'),
  ('Cn1ncnc1[C@H]1c2n[nH]c(=O)c3cc(F)cc(c23)N[C@@H]1c1ccc(F)cc1 + CNC(=O)c1ccc(Nc2nc(OC3CCCC3)c3c(-c4ccc5nc(C)oc5c4)c[nH]c3n2)c(OC)c1', 'pIC50', '> 9.50'),
  ('O=c1[nH]cc(F)c(=O)[nH]1 + CNC(=O)c1ccc(Nc2nc(OC3CCCC3)c3c(-c4ccc5nc(C)oc5c4)c[nH]c3n2)c(OC)c1', 'pIC50', '> 7.50'),
  ('Nc1ccn(C2OC(CO)C(O)C2(F)F)c(=O)n1 (stereo not given) + CN1CCN(c2cc(C(=O)Nc3cc4cc(-c5cnn(C)c5)ccc4cn3)ccn2)CC1', 'pIC50', '> 7.50'),
  ('C=C(F)C(=O)N1CCN(c2nc(OCC3CCCN3C)nc3c2CCN(c2cccc4cccc(Cl)c24)C3)CC1CC#N (stereo not given) + CN1CCN(c2cc(C(=O)Nc3cc4cc(-c5cnn(C)c5)ccc4cn3)ccn2)CC1', 'pIC50', '> 7.50'),
  ('C#Cc1c(F)ccc2cc(O)cc(-c3ncc4c(N5CC6CCC(C5)N6)nc(OCC56CCCN5CC(F)C6)nc4c3F)c12 (stereo not given) + CN1CCN(c2cc(C(=O)Nc3cc4cc(-c5cnn(C)c5)ccc4cn3)ccn2)CC1', 'pIC50', '> 7.50'),
  ('COc1ccc([C@@H](O)c2cc(-c3ncnc4cc(N5CCOCC5)ccc34)c(F)cc2Cl)nn1 + CNC(=O)c1ccc(Nc2nc(OC3CCCC3)c3c(-c4ccc5nc(C)oc5c4)c[nH]c3n2)c(OC)c1', 'pIC50', '> 7.50'),
  ('O=C(c1cc(Cc2n[nH]c(=O)c3ccccc23)ccc1F)N1CCN(C(=O)C2CC2)CC1 + CNC(=O)c1ccc(Nc2nc(OC3CCCC3)c3c(-c4ccc5nc(C)oc5c4)c[nH]c3n2)c(OC)c1', 'pIC50', '> 7.50'),
  ('Nc1ccccc1NC(=O)c1ccc(CNC(=O)OCc2cccnc2)cc1 + CN1CCN(c2cc(C(=O)Nc3cc4cc(-c5cnn(C)c5)ccc4cn3)ccn2)CC1', 'pIC50', '> 7.50'),
  ('C=CC(=O)Nc1cc(Nc2nccc(-c3cn(C)c4ccccc34)n2)c(OC)cc1N(C)CCN(C)C + CN1CCN(c2cc(C(=O)Nc3cc4cc(-c5cnn(C)c5)ccc4cn3)ccn2)CC1', 'pIC50', '> 9.02'),
  ('CCN1CCN(Cc2ccc(Nc3ncc(F)c(-c4cc(F)c5nc(C)n(C(C)C)c5c4)n3)nc2)CC1 + CN1CCN(c2cc(C(=O)Nc3cc4cc(-c5cnn(C)c5)ccc4cn3)ccn2)CC1', 'pIC50', '> 8.50'),
  ('CC(=O)O[C@H]1C(=O)[C@@]2(C)[C@H]([C@H](OC(=O)c3ccccc3)[C@]3(O)C[C@H](OC(=O)[C@H](O)[C@@H](NC(=O)c4ccccc4)c4ccccc4)C(C)=C1C3(C)C)[C@]1(OC(C)=O)CO[C@@H]1C[C@@H]2O + CN1CCN(c2cc(C(=O)Nc3cc4cc(-c5cnn(C)c5)ccc4cn3)ccn2)CC1', 'pIC50', '> 7.50'),
  ('O=C(c1cc(Cc2n[nH]c(=O)c3ccccc23)ccc1F)N1CCN(C(=O)C2CC2)CC1 + CN1CCN(c2cc(C(=O)Nc3cc4cc(-c5cnn(C)c5)ccc4cn3)ccn2)CC1', 'pIC50', '> 7.50');

Where do the numbers come from? From PubChem BioAssay AID2060604.
